Numbers sourced from patent US20260028424A1.

biological target: cyno c-Kit (SPR) (cyno, UniProt F6V858 26-520 (rhesus entry)); assay: SPR, single-cycle kinetics, Cynomolgus C-kit
Sequence (chain, as listed by the source): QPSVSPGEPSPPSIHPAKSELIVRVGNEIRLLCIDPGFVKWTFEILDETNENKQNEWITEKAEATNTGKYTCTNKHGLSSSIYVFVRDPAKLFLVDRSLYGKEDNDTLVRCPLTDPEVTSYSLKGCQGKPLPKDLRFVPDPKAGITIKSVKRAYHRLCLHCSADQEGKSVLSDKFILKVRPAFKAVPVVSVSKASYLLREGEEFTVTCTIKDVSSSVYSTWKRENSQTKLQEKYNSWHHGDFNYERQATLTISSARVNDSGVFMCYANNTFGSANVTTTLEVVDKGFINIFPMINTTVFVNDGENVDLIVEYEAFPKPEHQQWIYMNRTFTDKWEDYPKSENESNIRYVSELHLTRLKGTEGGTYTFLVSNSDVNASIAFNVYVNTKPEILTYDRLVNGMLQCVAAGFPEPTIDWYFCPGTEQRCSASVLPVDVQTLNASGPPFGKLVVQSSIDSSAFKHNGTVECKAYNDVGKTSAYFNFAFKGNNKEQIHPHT
experimentalReadout: kon (M⁻¹ s⁻¹)
Please reply with the bare figure in M⁻¹ s⁻¹ and do not write the unit itself.

Some binders with recorded kon:
>  <binder>
FJ2156_MH1_A x F6_12C huIgG1 KIH (bispecific antibody, V domains shown, also called MH1_A/F6.12_C) VH 1: EVQLVQSGAEVKKPGASVKVSCKASGYTFTDYYMNWVRQAPGQGLEWMGRIYPGSGNTYYAQKFQDRVTMTRDTSTSTVYMELSSLRSEDTAVYYCARGVYYYDYWGQGTLVTVSS VH 2: QVQLVQSGAEVKKPGESLKISCKGSGYRFASNWIGWVRQMPGKGLEWMGEIYPGDSNTRYRPSFQGQVTISADKSISTAYLQWSSLKASDTAMYYCARKDYYYGIMDVWGQGTTVTVSS VL: DIQMTQSPSSLSASVGDRVTITCRASQGIRTNLAWFQQKPGKAPKSLIYAASSLQSGVPSRFSGSGSGTDFTLTISSLQPEDFATYYCQQYNSYPRTFGGGTKVEIK

>  <valueUnit>
M⁻¹ s⁻¹

>  <kon>
297000

$$$$
>  <binder>
MH1_C/F6.12_D bispecific (pI-engineered) (bispecific antibody, V domains shown, Knob-in-hole IgG1null bispecific with human Ckappa) VH 1: QVQLVQSGAEVKEPGASVKVSCKASGYTFTDYYMNWVRQAPGQGLEWMGRIYPGSGNTYYAQNFQGRVTMTRDTSTSTVYMELSSLRSEDTAVYYCARGVYYYDYWGQGTLVTVSS VH 2: QVQLVQSGAEVKKPGESLKISCKGSGYRFASNWIGWVRQMPGKGLEWMGEIYPGDSNTRYSPSFQGQVTISADKSISTAYLQWSRLKASDTAMYYCARKDYYYGIMDVWGQGTTVTVSS VL: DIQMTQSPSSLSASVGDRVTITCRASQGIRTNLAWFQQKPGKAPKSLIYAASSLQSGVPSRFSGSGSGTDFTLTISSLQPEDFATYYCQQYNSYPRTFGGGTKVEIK

>  <valueUnit>
M⁻¹ s⁻¹

>  <kon>
291000

$$$$

Please look at the following binder next.
Data request, read-out kon, for MH1/F6.12 bispecific (parental, before pI engineering) (bispecific antibody, V domains shown, Knob-in-hole IgG1null bispecific with human Ckappa; also called parental bispecific MH1/F6.12) VH 1: QVQLVQSGAEVKKPGASVKVSCKASGYTFTDYYMNWVRQAPGQGLEWMGRIYPGSGNTYYAQKFQGRVTMTRDTSTSTVYMELSSLRSEDTAVYYCARGVYYYDYWGQGTLVTVSS VH 2: EVQLVQSGAEVKKPGESLKISCKGSGYRFASNWIGWVRQMPGKGLEWMGEIYPGDSNTRYSPSFQGQVTISADKSISTAYLQWSSLKASDTAMYYCARKDYYYGIMDVWGQGTTVTVSS VL: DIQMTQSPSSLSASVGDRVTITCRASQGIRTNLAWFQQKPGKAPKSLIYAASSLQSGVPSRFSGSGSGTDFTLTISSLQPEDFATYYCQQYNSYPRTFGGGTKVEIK
301000
